System Name: Bile acid receptor (Homo sapiens) (UniProt Q96RI1)
Sequence (Q96RI1 whole entry, looked up): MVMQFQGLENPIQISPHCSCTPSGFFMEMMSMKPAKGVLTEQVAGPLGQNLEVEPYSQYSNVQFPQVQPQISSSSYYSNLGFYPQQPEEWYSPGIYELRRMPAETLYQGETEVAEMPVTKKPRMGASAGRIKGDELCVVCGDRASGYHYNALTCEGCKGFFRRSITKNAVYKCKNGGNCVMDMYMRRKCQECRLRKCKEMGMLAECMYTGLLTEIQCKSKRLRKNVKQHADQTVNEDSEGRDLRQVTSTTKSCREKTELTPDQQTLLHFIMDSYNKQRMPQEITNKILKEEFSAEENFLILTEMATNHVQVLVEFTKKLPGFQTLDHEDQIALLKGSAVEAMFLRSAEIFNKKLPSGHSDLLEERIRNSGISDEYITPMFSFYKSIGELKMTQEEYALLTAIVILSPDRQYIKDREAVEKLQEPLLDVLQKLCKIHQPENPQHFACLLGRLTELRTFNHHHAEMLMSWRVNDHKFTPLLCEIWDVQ
Measurement Notes: qHTS assay for small molecule agonists of farnesoid X receptor signaling (AID 588527);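 further: 0% = vehicle basal and 100% = reference agonist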
Reported Conditions: HEK293T FXR-UAS-bla, beta-lactamase ratio, 16 h; stronger effect = higher value
Records with an inconclusive call do not appear.
Observable: activation (%)
Numbers only here, please. The scale is %.

Fill in: activation of CC(C)=CCC/C(C)=C/CO is ___
0.54

====

Reported Conditions: Ebola virus entry assay, green fluorescence channel
Entries with a potency or affinity are not part of this list.
Measured efficacy by item
// return numeric value only (unit: %, not printed)

Looking for the measured efficacy of O=c1[nH]c(=O)n([C@H]2C[C@H](O)[C@@H](CO)O2)cc1I , can you help?
-7.83

Others:
efficacy lookup needed for C[n+]1c2cc(N)ccc2cc2ccc(N)cc21 (tested in a mixture with another compound) , thanks.
129

Reported efficacy, compound COc1cc(/C=C/C(=O)O[C@H]2CC[C@]34C[C@]35CC[C@]3(C)[C@@H]([C@H](C)CCC=C(C)C)CC[C@@]3(C)[C@@H]5CC[C@H]4C2(C)C)ccc1O : ____
-25.4

Which efficacy value belongs to NC(=O)n1c(O)c(C(=O)c2cccs2)c2cc(Cl)ccc21 ?
15

Can you look up the measured efficacy of CCCCC(=O)OCC(=O)[C@H]1[C@H](C)C[C@H]2[C@@H]3C[C@H](F)C4=CC(=O)C=C[C@]4(C)[C@@]3(F)[C@@H](O)C[C@@]21C for me?
21.9

Return reported efficacy; argument: O=C1OC(CCN2CCCCC2)OC1(c1ccccc1)c1ccccc1 (stereo not drawn)
-23.4

====

Measurement Notes: qHTS for differential inhibitors of proliferation of Plasmodium falciparum line D10 (AID 1877);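 further: parasites grown with compound for 72 h before DNA staining; plate controls were vehicle wells for no effect and reference inhibitor wells for full effect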
Reported Conditions: series mostly up to 28.7 µM
Results filed as inconclusive are left out. Active and inactive are the calls of the source. Calls follow the shape of the dose curve; as a rule, active = well fitted curve in the direction sought with a large enough effect; inconclusive = small, poorly fitted or top-dose-only effect, or another doubt; inactive = no such curve, though single readings can be large or run the other way.
Observable: outcome

Recorded outcome of O=P1(N(CCCl)CCCl)NCCCO1 (stereo not drawn) , please.
inactive

Give its outcome value. Item: C=C(C)[C@H]1CN[C@H](C(=O)O)[C@H]1CC(=O)O
inactive

Need outcome, item NCCc1ccc(O)cc1
inactive

====

System: W2
Measurement Notes: qHTS profiling for inhibitors of Plasmodium falciparum proliferation (AID 504749);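 further: 0% = DMSO vehicle and full inhibition = artemisinin control; nearly all actives have a fitted effect of over 60% in size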
Reported Conditions: P. falciparum in erythrocytes, SYBR Green DNA, 72 h; series mostly up to 28.7 µM
Records with an inconclusive call do not appear. Activity calls are given as the source filed them. Calls follow the shape of the dose curve; as a rule, active = well fitted inhibition curve with a large enough effect; inconclusive = small, poorly fitted or top-dose-only effect; inactive = flat fitted curve, though single readings scatter.
Observable: outcome

Reported outcome for C[C@]12CC[C@@H]3c4ccc(OC(=O)N(CCCl)CCCl)cc4CC[C@H]3[C@@H]1CC[C@@H]2O : what is it?
inactive

Sample O=C1Nc2ccc(Cl)cc2C(c2ccccc2)=NC1O (stereo not drawn) — what was its outcome?
inactive

Give its outcome value. Item: Clc1ccc2c(c1)C(c1ccccc1)=NCc1nncn1-2
inactive

====

Reported Conditions: Ebola virus entry assay, blue channel fluorescence
Active and inactive are the calls of the source. No rule for the calls is given here.
Observable: outcome

Examples from the recorded data:
What value of outcome has been reported for the following molecule? C=CCN1C[C@H](C(=O)N(CCCN(C)C)C(=O)NCC)C[C@@H]2c3cccc4[nH]cc(c34)C[C@H]21
inactive

For COC(=O)[C@@H]1[C@H]2C[C@H]3c4[nH]c5ccccc5c4CCN3C[C@@H]2CC[C@@H]1O , what is its reported outcome?
inactive

Given the molecule COc1ccc(-c2ccc3cc(C(=O)O)ccc3c2)cc1C12CC3CC(CC(C3)C1)C2 , what is its reported outcome?
inactive

Need outcome, item CC(=O)c1ccc(O)c(C(N)=O)c1
inactive

Find the recorded outcome belonging to Clc1ccc2nsnc2c1NC1=NCCN1 and report it.
inactive

More entries:
Quick check: outcome of CO[C@@]1(NC(=O)Cc2cccs2)C(=O)N2C(C(=O)O)=C(COC(N)=O)CS[C@@H]21 ?
inactive

Consider the molecule CC[C@@]1(O)C(=O)OCc2c1cc1n(c2=O)Cc2c-1nc1ccccc1c2/C=N/OC(C)(C)C and give its measured outcome.
inactive

GET /values?readout=outcome&item= NNC(=O)c1ccncc1
inactive
